- measured target: T1, VLP2 (virus-like particles of AAV2) (AAV2, UniProt P03135 1-735; P03135 1-598; P03135 1-533)
- T1 construct: Empty AAV2 capsid; background says about 60 protein molecules, VP1:VP2:VP3 = 1:1:10; Immobilised on the ELISA plate
- T1 sequence (P03135 whole entry, chain 1 of 3): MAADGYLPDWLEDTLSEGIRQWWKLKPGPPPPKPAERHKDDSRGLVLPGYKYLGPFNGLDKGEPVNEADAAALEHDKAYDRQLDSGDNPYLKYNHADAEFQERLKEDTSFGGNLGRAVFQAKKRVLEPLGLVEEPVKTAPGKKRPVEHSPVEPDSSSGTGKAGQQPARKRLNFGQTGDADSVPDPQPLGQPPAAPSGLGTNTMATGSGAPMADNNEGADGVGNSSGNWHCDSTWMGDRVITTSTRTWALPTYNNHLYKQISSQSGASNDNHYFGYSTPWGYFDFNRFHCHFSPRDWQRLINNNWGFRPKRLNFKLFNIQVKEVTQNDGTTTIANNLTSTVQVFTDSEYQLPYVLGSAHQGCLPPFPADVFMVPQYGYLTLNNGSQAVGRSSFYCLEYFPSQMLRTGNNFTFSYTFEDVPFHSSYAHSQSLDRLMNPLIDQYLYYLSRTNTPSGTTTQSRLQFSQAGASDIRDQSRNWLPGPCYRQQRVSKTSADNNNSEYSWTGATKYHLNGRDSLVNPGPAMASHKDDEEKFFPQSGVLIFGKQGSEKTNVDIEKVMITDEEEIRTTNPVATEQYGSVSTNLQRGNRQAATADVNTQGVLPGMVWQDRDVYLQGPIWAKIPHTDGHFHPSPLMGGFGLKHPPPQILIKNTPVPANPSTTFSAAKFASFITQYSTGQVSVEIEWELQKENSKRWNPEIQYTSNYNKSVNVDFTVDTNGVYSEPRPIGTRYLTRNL
- T1 sequence (P03135 139-735, tags left off, chain 2 of 3): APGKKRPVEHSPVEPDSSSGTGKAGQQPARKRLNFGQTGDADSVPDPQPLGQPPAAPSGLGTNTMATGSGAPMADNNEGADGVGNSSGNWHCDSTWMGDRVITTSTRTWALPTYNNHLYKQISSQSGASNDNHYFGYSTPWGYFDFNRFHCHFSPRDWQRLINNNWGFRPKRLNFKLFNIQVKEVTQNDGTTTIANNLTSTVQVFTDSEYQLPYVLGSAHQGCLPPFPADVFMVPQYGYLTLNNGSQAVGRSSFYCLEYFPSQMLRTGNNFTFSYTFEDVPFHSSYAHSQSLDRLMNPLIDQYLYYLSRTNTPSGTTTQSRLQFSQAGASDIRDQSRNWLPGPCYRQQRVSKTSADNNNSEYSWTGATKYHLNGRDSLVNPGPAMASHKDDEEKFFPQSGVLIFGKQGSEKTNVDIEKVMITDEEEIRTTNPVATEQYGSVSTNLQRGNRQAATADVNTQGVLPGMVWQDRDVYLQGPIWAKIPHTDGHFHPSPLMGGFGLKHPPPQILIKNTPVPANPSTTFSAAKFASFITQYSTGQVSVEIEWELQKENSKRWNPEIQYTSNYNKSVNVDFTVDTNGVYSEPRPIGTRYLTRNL
- T1 sequence (P03135 203-735, chain 3 of 3): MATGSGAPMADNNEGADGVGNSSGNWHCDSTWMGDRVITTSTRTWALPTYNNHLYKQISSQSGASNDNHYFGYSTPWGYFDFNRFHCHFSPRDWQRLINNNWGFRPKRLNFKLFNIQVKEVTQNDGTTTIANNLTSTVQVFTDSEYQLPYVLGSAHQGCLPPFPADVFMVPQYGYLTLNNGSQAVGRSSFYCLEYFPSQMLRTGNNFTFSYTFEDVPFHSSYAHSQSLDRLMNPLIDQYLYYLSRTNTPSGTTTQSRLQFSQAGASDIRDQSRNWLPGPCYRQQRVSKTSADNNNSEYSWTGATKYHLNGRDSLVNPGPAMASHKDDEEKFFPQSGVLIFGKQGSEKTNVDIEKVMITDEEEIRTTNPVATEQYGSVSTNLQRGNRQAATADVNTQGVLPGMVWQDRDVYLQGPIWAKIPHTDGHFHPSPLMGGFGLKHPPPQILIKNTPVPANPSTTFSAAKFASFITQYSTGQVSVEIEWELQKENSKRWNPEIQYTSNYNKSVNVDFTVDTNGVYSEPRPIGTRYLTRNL
- assay procedure: ELISA on VLP2; binding after pH 3.0 51.1°C 15 min / untreated;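 note: binding of the heat-treated AAV-binding protein to VLP2, expressed as a percentage of the binding of the same protein without heating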
measurement name: Residual activity [%]
Hi, when you answer, please include the unit after the number. Thanks!

[in] Name the recorded Residual activity [%] of the item AAV-binding protein No. 71 (AVR2 + His389Asp) (receptor) MGSAGESVQITLPKNEVQLNAYVLQEPPKGETCTYDWQLITHPRDYSGEMEGKHSQILKLSKLTPGLYEFKVIVEGQNADSEGYVNVTVKPEPRKNRPPIAIVSPQFQEISLPTTSTVIDGSQSTDDDKIVQYHWEELKGPLREEKISEDTAILKLSKLVPGNYTFSLTVVDSDGATNSTTANLTVNKAVDHHHHHH in your answer.
[out] 71.9%

[in] Name the recorded Residual activity [%] of the item AAV-binding protein No. 78 (AVR2 + Leu328Pro, Ile366Phe) (receptor) MGSAGESVQITLPKNEVQPNAYVLQEPPKGETCTYDWQLITHPRDYSGEMEGKHSQFLKLSKLTPGLYEFKVIVEGQNAHSEGYVNVTVKPEPRKNRPPIAIVSPQFQEISLPTTSTVIDGSQSTDDDKIVQYHWEELKGPLREEKISEDTAILKLSKLVPGNYTFSLTVVDSDGATNSTTANLTVNKAVDHHHHHH in your answer.
[out] 55.9%
